Reference source for all entries: patent US10681909B2

Measured Plant response rating (scale of 0 to 100 where 0 is no effect and 100 is complete control), listed per entry.
Tested on: galium
TEST: Test C postemergence
Assay type: in vivo, Galium aparine
SETUP_CONDITIONS: 31 g ai/ha
PARAMETER: Plant response rating (scale of 0 to 100 where 0 is no effect and 100 is complete control)

• FC(F)(F)COc1nc(-c2ccc(Cl)cc2)nn1Cc1ccnc(C(F)(F)F)c1 [Compound 31] = 80
• CCOc1nc(-c2ccc(F)cc2)nn1Cc1ccnc(C(F)(F)F)c1 [Compound 8] = 80
• COc1nc(-c2ccccc2)nn1Cc1ccnc(C(F)(F)F)c1 [Compound 32] = 20
• CCCc1nc(-c2ccc(F)cc2)nn1Cc1ccnc(C(F)(F)F)c1 [Compound 6] = 80
• COc1nc(-c2ccc(C(F)(F)F)cc2)nn1Cc1ccnc(C(F)(F)F)c1 [Compound 25] = 80
• CCOc1nc(-c2ccccc2)nn1Cc1ccnc(C(F)(F)F)c1 [Compound 27] = 90
• Fc1ccc(-c2nc(OCC(F)(F)F)n(Cc3ccnc(C(F)(F)F)c3)n2)cc1 [Compound 30] = 80
